Reported selectivity ratio is given for each of the following compounds.
experiment: Selectivity index, ratio of CC50 for HEK293T cells to EC50 for Chikungunya virus infected in HEK293T cells; format: toxicity, cell-based, HEK-293T; conditions: human, read-out: Ratio CC50/EC50

Sample records with selectivity ratio:
COc1ccc(Cn2c(C(=O)N3CCN(Cc4ccccc4)CC3)cc3sc(CNC(C)c4ccccc4)cc32)cc1 (stereo not drawn) : > 11
CCN(CC)C(=O)c1cc2sccc2n1Cc1ccc(OC)cc1 : > 2

Please examine the following record next.
Query: Please look up its selectivity ratio: COc1ccc(Cn2c(C(=O)N3CCC(C(=O)NCC4CC4)CC3)cc3sccc32)cc1
Reply: 2.4

----------
test: Selectivity index, ratio of CC50 for HEK293T cells to EC50 for Chikungunya virus infected in HEK293T cells; type: toxicity, cell-based, HEK-293T; conditions: human, read-out: Ratio CC50/EC50
measurement.name: selectivity ratio
API note: the answer field is a bare number with no unit suffix.

Sample records with selectivity ratio:
CCOC(=O)C1CCN(C(=O)c2cc3sccc3n2Cc2ccc(OC)cc2)CC1 : 3
CCCNC(=O)C1CCN(C(=O)c2c(CNC(C)c3ccccc3)c3sccc3n2Cc2ccc(OC)cc2)CC1 (stereo not given) : 4.8
CCCNC(=O)C1CCN(C(=O)c2c(CNCc3ccccc3)c3sccc3n2Cc2ccc(OC)cc2)CC1 : 5

Please examine the following record next.
Query: Please look up its selectivity ratio: COc1ccc(Cn2c(C(=O)N3CCC(C(=O)NCCC(C)C)CC3)cc3sccc32)cc1
Reply: 2.8

----------
assay: Selectivity index, ratio of CC50 for HEK293T cells to EC50 for Chikungunya virus infected in HEK293T cells; assay type: toxicity, cell-based, HEK-293T; settings: human, read-out: Ratio CC50/EC50
Reported selectivity ratio is given for each of the following compounds.

CCCNC(=O)C1CCN(C(=O)c2c(CO)c3sccc3n2Cc2ccc(OC)cc2)CC1 : > 2.1

Query: Please look up its selectivity ratio: CCCNC(=O)C1CCN(C(=O)c2cc3sc(C)cc3n2Cc2ccc(OC)cc2)CC1
Reply: 10

Query: Please look up its selectivity ratio: CCCNCc1cc2c(cc(C(=O)N3CCC(C(=O)NCCC)CC3)n2Cc2ccc(OC)cc2)s1
Reply: > 2.5

Query: Please look up its selectivity ratio: COc1ccc(Cn2c(C(=O)N3CCC(C(N)=O)CC3)cc3sccc32)cc1
Reply: > 1.4

Query: Please look up its selectivity ratio: COc1ccc(Cn2c(C(=O)N3CCC(C(=O)NC(C)c4ccccc4)CC3)cc3sccc32)cc1 (centres undefined)
Reply: > 7.7

----------
experiment: Selectivity index, ratio of CC50 for HEK293T cells to EC50 for Chikungunya virus infected in HEK293T cells; assay type: toxicity, cell-based, HEK-293T; details: human, read-out: Ratio CC50/EC50
Reported selectivity ratio is given for each of the following compounds.

Sample records with selectivity ratio:
COc1ccc(Cn2c(C(=O)N3CCC(C(=O)NCCc4ccccc4)CC3)cc3sccc32)cc1 : > 9
COc1ccc(Cn2c(C(=O)N3CCC(C(=O)NCc4ccccc4)CC3)cc3sccc32)cc1 : > 8.1
CCCNC(=O)C1CCN(C(=O)c2cc3sc(CNC(C)c4ccccc4)cc3n2Cc2ccc(OC)cc2)CC1 (centres undefined) : 4
COc1ccc(Cn2c(C(=O)N3CCN(Cc4ccccc4)CC3)cc3sc(-c4ccccc4)cc32)cc1 : > 2.4
COc1ccc(Cn2c(C(N)=O)cc3sccc32)cc1 : > 2.8

Query: Please look up its selectivity ratio: COc1ccc(Cn2c(C(=O)N3CCN(Cc4ccccc4)CC3)c(CNC(C)c3ccccc3)c3sccc32)cc1 (centres undefined)
Reply: > 4.3

Query: Please look up its selectivity ratio: CCCNC(=O)C1CCN(C(=O)c2cc3sc(C(C)=O)cc3n2Cc2ccc(OC)cc2)CC1
Reply: > 4.8

Query: Please look up its selectivity ratio: CCCNC(=O)C1CCN(C(=O)c2cc3sc(Br)cc3n2Cc2ccc(OC)cc2)CC1
Reply: > 32

Query: Please look up its selectivity ratio: COc1ccc(Cn2c(C(=O)N3CCNCC3)cc3sccc32)cc1
Reply: > 3.1
